assayedSystem: T1, pm5 (Y15 and Y17 sulfated; Y16 not sulfated)
T1 construct: also called sulfated CCR8 N-terminal peptide pm5
T1 sequence (peptide, as listed by the source): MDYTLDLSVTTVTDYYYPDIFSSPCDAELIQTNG
methodNotes: ELISA on coated peptide [cont.]

{"columns": ["binder", "binding result"],
 "data": [
  ["anti-CCR8 mAb 1-19 (antibody, human IgG1, kappa, V domains shown, Humanized mAb, human IgG1 / kappa) VH: EVQLVESGGGLVQPGRSLRLSCTASGFTFNTYAMNWVRQAPGKGLEWVARIRSKSNNYATYYAASVKGRFTISRDDSKSIAYLQMNSLKTEDTAVYYCVRGREAYYRYDGGYYAMDVWGQGTTVTVSS VL: DIVMTQAAPSLPVTPGESASISCRSSKSLLHSNGNTYLYWFLQKPGQSPQLLIYRMSNLASGVPDRFSGSGSGTAFTLKISRVEAEDVGVYYCMQHLEYPFTFGSGTKLEIKR", "binds"],
  ["anti-CCR8 mAb 1-2 (antibody, V domains shown, Murine hybridoma mAb) VH: EVQLVESGGGLVQPKGSLKLSCAASGFTFNTYAMNWVRQAPGKGLEWVARIRSKSNNYATYYADSVKDRFTISRDDSQSMLYLQMNNLKTEDTAMYYCVRGREAYYRYDGGYYAMDYWGQGTSVTVSS VL: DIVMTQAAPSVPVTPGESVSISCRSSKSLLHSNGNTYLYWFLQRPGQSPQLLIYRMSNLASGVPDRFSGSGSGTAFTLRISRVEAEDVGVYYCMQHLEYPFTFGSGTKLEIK", "binds"],
  ["anti-CCR8 mAb 1-24 (antibody, human IgG1, kappa, V domains shown, Humanized mAb, human IgG1 / kappa) VH: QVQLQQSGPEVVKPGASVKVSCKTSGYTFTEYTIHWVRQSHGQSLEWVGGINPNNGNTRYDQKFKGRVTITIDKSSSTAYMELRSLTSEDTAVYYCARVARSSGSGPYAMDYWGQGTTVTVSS VL: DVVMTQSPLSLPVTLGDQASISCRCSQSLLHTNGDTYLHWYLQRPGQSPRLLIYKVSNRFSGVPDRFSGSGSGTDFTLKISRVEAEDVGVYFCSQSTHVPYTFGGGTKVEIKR", "binds"]
]}
